Ref: PubChem BioAssay

Test details: compound effects on hepatocellular carcinoma cell viability – HepG2, calcein-AM fluorescence, 48 h, basal, profiling panel (AID 1164); also: test concentration not given here
Condition notes: higher = more signal
Where z-score equals or exceeds -0.02, the correct label is Yes; where it does not, the label is No.

Completed entries (count: 2):
Compound	Group
COC(=O)[C@]1(CCC(=O)OC(C)(C)C)N=C(c2ccc(OCCCO)cc2)O[C@@H]1c1ccccc1	No
CCN(CC)c1ccc(N2CC=CC34O[C@@H]5/C=C\CCC(C)OC(=O)C5[C@H]3C(=O)N(CCCCCO)[C@@H]4C2=O)cc1 (some centres undefined)	Yes

Please examine the following record next.
Kindly determine if z-score recorded for CCOC(=O)C[C@H]1[C@H](OC(=O)c2ccc(C(=O)c3ccccc3)cc2)[C@@H](NC(=O)c2ccccc2)c2cc(OCCCO)ccc2N1C(=O)c1ccccc1 is above or exactly -0.02.
Yes

----------
Test details: compound effects on hepatocellular carcinoma cell viability – HepG2, calcein-AM fluorescence, 48 h, basal, profiling panel (AID 1164); also: test concentration not given here
Condition notes: higher = more signal
Test readout: z-score

Past entries and their recorded results:
                           smiles_structure  test_result
0  C=C(CCCC)/C(=C/C[C@@H](OC(C)=O)c1ccccc1OCCO)c1cc(C(=O)OC)ccc1OC        0.741
1  C#CCN1[C@H](/C=C/C2CC2)[C@H](Cc2ccccc2)OC(=O)[C@@H]1Cc1ccccc1      -0.0365
2  O[C@@H](Cc1ccccc1)[C@@H](/C=C/C1CC1)NCc1cccc(Cl)c1        -1.39

// query z-score value for entry CO[C@H]1O[C@H](CO)[C@@H](OC(=O)Nc2ccccc2)[C@@H]2OC(=O)[C@@H](Cc3ccc4ccccc4c3)C/C=C/C[C@H](Cc3ccc4ccccc4c3)C(=O)O[C@@H]12
0.705

----------
System: Fibroblast growth factor 2 (Homo sapiens) (UniProt P09038)
Sequence (P09038 whole entry, looked up): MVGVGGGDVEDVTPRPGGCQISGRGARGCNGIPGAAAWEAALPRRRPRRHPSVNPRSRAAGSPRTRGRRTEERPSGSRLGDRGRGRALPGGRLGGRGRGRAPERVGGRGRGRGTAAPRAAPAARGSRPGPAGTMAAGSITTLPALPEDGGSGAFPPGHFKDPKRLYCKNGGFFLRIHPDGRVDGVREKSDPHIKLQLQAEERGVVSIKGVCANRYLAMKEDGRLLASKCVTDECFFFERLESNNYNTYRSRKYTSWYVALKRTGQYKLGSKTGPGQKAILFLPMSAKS
Test details: basic fibroblast growth factor binding to printed compounds – biochemical, small-molecule microarray, 635/667 nm fluorescence, primary screen (AID 1133)
Condition notes: FGF2, fluorescence 635/667, higher = more signal
Given measured composite z-score, output 1 (yes) if it is greater than or equal to -0.3 and 0 (no) if not.

Reference set, count: 3
Molecule	System	Group
O=C1O[C@H](c2ccccc2)[C@H](c2ccccc2)N2[C@H]1[C@@H](C(=O)NC[C@H](O)c1ccccc1)[C@]1(C(=O)Nc3ccc(C#CC4=CCCCC4)cc31)[C@H]2c1ccccc1OCCO	Fibroblast growth factor 2 (Homo sapiens) (UniProt P09038)	1 (yes)
C[C@H]1C2[C@H](Cc3ccccc3)NC(=O)[C@]23C(=O)NCC(=O)N2CCC[C@H]2C(=O)NC/C=C/CCC/C=C/C3[C@@H]2O[C@]12C (some centres not stated)	Fibroblast growth factor 2 (Homo sapiens) (UniProt P09038)	1 (yes)
CCCCCN1CC=CC23O[C@@H]4C=CCOC(=O)[C@@H]4[C@H]2C(=O)N(C(C)CO)[C@@H]3C1=O (some centres not stated)	Fibroblast growth factor 2 (Homo sapiens) (UniProt P09038)	0 (no)

# check: composite z-score of COC(=O)c1c2oc(c1C(=O)OC)C(=O)N[C@@H](C(C)C)Cn1cc(nn1)C1(CCCCC1)NC(=O)N[C@H](CO)CC2 is greater than or equal to -0.3
1 (yes)

Same thing, different molecule: CC(C)NC(=O)[C@@H]1c2ccccc2C(=O)N(C(C)C)[C@H]1c1ccc(CO)cc1
0 (no)

Moving on to CCCCC(O)C1C=CC2C(=O)N(C)C(=O)C2N1N1CCCCC1 (configuration not stated)
0 (no)

Field entry: Cc1ccc(S[C@]2(C(=O)O)CC(=O)N(C(C)C)[C@@H]2c2ccc(CO)cc2)cc1
1 (yes)

----------
Test system: Fibrinogen (Alexa647-labelled)
Test details: Alexa647-fibrinogen binding to printed small molecules – biochemical, small-molecule microarray, 635/667 nm fluorescence, artefact control for SMM control-protein annotation, profiling panel (AID 1131);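 also: z-score merges 667 nm fluorescence with per-spot signal-to-noise over triplicate slides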
Condition notes: fibrinogen-A647 binding fluorescence, higher = more signal
Use true when the recorded composite z-score is no lower than 0.6; use false when it is lower.

Compound	System	Group
CC(C)(C)OC(=O)CC[C@]1(C(N)=O)N=C(c2ccc(OCCCO)cc2)O[C@H]1c1ccccc1	Fibrinogen (Alexa647-labelled)	false

Could you tell me if the measured composite z-score of Cc1ccc(S(=O)(=O)N2C[C@@H](C(=O)O)[C@H](Sc3ccccc3)C[C@H]2c2ccccc2)cc1 reaches 0.6 or more?
true

Further, for CC1CC/C=C\[C@H]2OC34C=CCN(Cn5nnc6ccccc65)C(=O)[C@H]3N(CCCCCO)C(=O)[C@@H]4C2C(=O)O1 (stereo not given in full) ?
false

Follow-up item: O=C(O)[C@H]1C[C@H]2C(=O)N3CCC[C@H]3C(=O)N2[C@H]1c1ccc(O)cc1
false

For CC(C)N1CC=CC23O[C@@H]4C=CCOC(=O)[C@@H]4[C@H]2C(=O)N(CCCCCO)[C@@H]3C1=O (stereo not given in full) then?
false

----------
Test details: probe aInhba binding on compound microarray – biochemical, small-molecule microarray, 635/667 nm fluorescence, primary screen (AID 1148);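 also: score merges 667nm spot fluorescence with signal-to-noise for antibody binding to printed compounds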
Condition notes: higher = more signal
Test readout: composite z-score

                                   compound  test_result
0  CN1C(=O)C2C=CC(C(O)c3c(F)cccc3Cl)N(NC(=O)OC(C)(C)C)C2C1=O (stereo not given)        0.181
1  CC[C@@H]1C=C(C(=O)O)[C@H](c2ccc(C)cc2)N1S(=O)(=O)c1ccc(C)cc1       0.0516
2  CC(C)(C)OC(=O)CC[C@]1(C(N)=O)N=C(c2ccc(OCCCO)cc2)O[C@H]1c1ccccc1          0.4

Using the record for CCCC[C@H]1C[C@@H]1[C@@H]1N(P(=O)(c2ccccc2)c2ccccc2)C[C@@](O)(c2ccccc2)CC12CC2 , report its composite z-score.
0.108

Also need COc1ccc([C@H]2OC[C@@H]3CCC(=O)N32)cc1 , thanks.
0.114

----------
Test details: budding yeast growth modifiers under rapamycin – strain BY4716, OD600, 96 h, primary screen (AID 1091); also: test concentration not given here
Condition notes: S. cerevisiae BY4716 + rapamycin, higher = more signal, called active from +8 up or from −8 down
Test readout: z-score
Form field (numeric): enter value without unit.

Worked examples, 3 compounds total:
Compound	z-score
C=CCC(OC(C)=O)[C@@H]1[C@@H](N(Cc2cc3ccccc3o2)C(=O)Cc2ccc(OC)cc2)c2cc(OCCCO)ccc2N1C(=O)c1ccc2ccccc2c1 (some centres undefined)	0.194
C=CCN1Cc2ccccc2[C@@H]2OC(c3ccc(OCCCO)cc3)=N[C@]2(CCS(=O)(=O)c2ccccc2)C1=O	3.51
C#CCOc1ccc(C[C@@H](C(=O)OC)N(CC#C)[C@@H](/C=C/C2CC2)[C@H](O)Cc2ccccc2)cc1	1.29

# evaluate next
Quick check: z-score of O=C1N(CCS(=O)(=O)c2ccccc2)c2ccccc2[C@@H]2OC(c3ccc(OCCCO)cc3)=N[C@]12Cc1ccccc1 ?
3.02

----------
Test details: basal CRE-LacZ reporter activity in PC12 – cell-based, unstimulated, primary screen (AID 1145)
Condition notes: no forskolin, luminescence, 4.5 h, higher = more signal, called active from +8 up or from −8 down
Test readout: z-score
Reply with the value as a number alone.

Please review the entries below; each comes with its answer.
Compound	z-score
C#CCN1[C@@H](Cc2ccc(O)cc2)C(=O)O[C@H](Cc2ccccc2)[C@@H]1/C=C/C1CC1	15.1
COc1cc2c(cc1OC)CN(C(=O)[C@H]1[C@@H]3C(=O)O[C@@H](c4ccccc4)[C@@H](c4ccccc4)N3[C@@H](c3ccccc3OCCO)[C@]13C(=O)Nc1ccc(C#CCCO)cc13)CC2	0.712
[N-]=[N+]=Nc1ccccc1C[C@]1(C(=O)NCC(O)CO)N=C(c2ccc(OCCCO)cc2)O[C@H]1c1ccccc1 (some centres not stated)	1.19
COc1ccc([Si](C)(C)[C@H]2[C@H](CCO)O[C@@]3(C(=O)N(Cc4ccccc4)c4ccc(N5CCCCC5=O)cc43)[C@@H]2C)cc1	4.22
C[N+](C)(C)CCCC[C@@H]1NC(=O)[C@H]2C[C@@H](C(=O)NCCCCCCNC(=O)CS)[C@@H](c3ccc(O)cc3)N2C1=O	-0.947
CCOC(=O)C1=CC[C@H]2C(=O)N(c3ccccc3)C(=O)[C@@H]12	0.836

--- query ---
Item under review: CCC(CC)C(O)C1C=CC2C(=O)N(c3ccccc3)C(=O)C2N1Nc1ccccc1 (configuration not stated) . Reported z-score?
1.01

----------
System: Focal adhesion kinase 1 (Homo sapiens)
Test details: PTK2 protein binding on printed compound slides – biochemical, small-molecule microarray, 635/667 nm fluorescence, BSA, DTT, primary screen (AID 1130);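 also: composite of spot emission at 667 nm and signal to noise over triplicate slides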
Condition notes: 635 nm fluorescence, higher = more signal
Test readout: composite z-score
Keep it simple and answer with nothing but the number.

Look at this compound and give its reported composite z-score. COC(=O)c1c(CC[C@@H](CO)NC(=O)N[C@@H](Cc2ccccc2)Cn2cc(-c3ccccn3)nn2)oc(C(=O)N2CCOCC2)c1C(=O)OC
0.384

Also, O=C1[C@@]23C=C(Br)[C@H](C[C@@H]2COC3)[C@]12CO2 please.
0.406

Entry C=C(/C(=C/C[C@H](OC(C)=O)c1ccc(OCCO)cc1)c1cc(C(=O)OC)ccc1OC)C(C)C please
0.413

Then what about the compound COc1ccc(CCNC(=O)[C@@]2(C)c3ccccc3C(=O)N(c3ccc(C)cn3)[C@H]2c2ccc(CO)cc2)cc1 ?
-0.284

Lookup Cc1ccc(S[C@]2(C(=O)NCC(C)C)CC(=O)N(Cc3cc(C(F)(F)F)cc(C(F)(F)F)c3)[C@@H]2c2ccc(CO)cc2)cc1
-0.261

Next compound up: COc1ccc([C@H]2C[C@H]3C(I)=C[C@@H]2C(=O)[C@]32CO2)cc1
-0.449

Also, CCCC=C(CCC)[C@@H](NS(=O)(=O)c1ccc(Cl)cc1)c1ccc(C(=O)OC)cc1 please.
0.0301

Now consider O=C1[C@H]2C=C(Br)[C@H](C[C@@H]2OCCCCCCO)[C@@]12CO2 .
-0.191
